# TARGET ENTITY: Recombinant ROCK2 (amino acids 1-552) (Homo sapiens (Human))
# Sequence (O75116 1-552): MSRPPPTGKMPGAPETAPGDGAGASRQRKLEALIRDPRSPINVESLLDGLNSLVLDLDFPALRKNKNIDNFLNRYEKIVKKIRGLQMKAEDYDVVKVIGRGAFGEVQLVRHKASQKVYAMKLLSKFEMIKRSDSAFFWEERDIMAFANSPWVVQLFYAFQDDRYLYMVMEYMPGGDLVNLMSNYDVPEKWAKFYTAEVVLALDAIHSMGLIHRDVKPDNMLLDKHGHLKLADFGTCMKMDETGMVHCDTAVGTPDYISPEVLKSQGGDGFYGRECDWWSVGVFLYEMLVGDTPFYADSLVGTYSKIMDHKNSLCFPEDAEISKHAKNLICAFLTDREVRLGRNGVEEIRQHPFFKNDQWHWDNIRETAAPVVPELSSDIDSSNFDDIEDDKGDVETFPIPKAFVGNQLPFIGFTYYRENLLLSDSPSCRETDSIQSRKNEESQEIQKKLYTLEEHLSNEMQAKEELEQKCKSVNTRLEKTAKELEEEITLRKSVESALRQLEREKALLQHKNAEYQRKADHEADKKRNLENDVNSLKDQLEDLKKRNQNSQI
# TEST NAME: Z′-Lyte kinase assay, ROCK2
# Assay type: biochemical
Category scheme (IC50): low end (below 20 nM), middle (20 nM to below 100 nM), high end (100 nM or more)

>>> df
                                   molecule                             target_entity  classification
0  Nc1ncc(-c2ccc(Nc3ccnc(N4CCNCC4)n3)cc2)s1  Recombinant ROCK2 (amino acids 1-552) (Homo sapiens (Human))        high end
1  c1cc2[nH]ncc2cc1Nc1nc(N2C3CNCC2C3)nc2c1COCC2  Recombinant ROCK2 (amino acids 1-552) (Homo sapiens (Human))         low end
2  c1cc(-c2cn[nH]c2)ccc1Nc1nc(N2C3CNCC2C3)nc2c1COCC2  Recombinant ROCK2 (amino acids 1-552) (Homo sapiens (Human))          middle
3  CN1CCc2nc(N3C4CCC3CNC4)nc(Nc3ccc4[nH]ncc4c3)c2C1  Recombinant ROCK2 (amino acids 1-552) (Homo sapiens (Human))          middle
4  Nc1ccc(-c2ccc(Nc3ccnc(N4CCNCC4)n3)cc2)cn1  Recombinant ROCK2 (amino acids 1-552) (Homo sapiens (Human))        high end

Which class is correct for the following molecule? CCOC(=O)[C@H]1N[C@@H]2C[C@@H]1CN(c1ncc(Cl)c(Nc3ccc4[nH]ncc4c3)n1)C2 (stereo in doubt)
high end

Which class is correct for the following molecule? FC(F)(F)c1cnc(N2C3CCC2CNC3)nc1Nc1ccc2[nH]ncc2c1
middle

Which class is correct for the following molecule? OC1CC2CCC(C1)N2c1nccc(Nc2ccc3[nH]ncc3c2)n1 (stereo not drawn)
low end

Which class is correct for the following molecule? CN1CCc2c(nc(N3C4CNCC3C4)nc2Nc2ccc3[nH]ncc3c2)C1
low end

Which class is correct for the following molecule? Cc1c(C#N)nc(N2C3CCC2CNC3)nc1Nc1ccc2[nH]ncc2c1
middle

Which class is correct for the following molecule? Nc1nc(-c2ccc(Nc3ccnc(N4CCNCC4)n3)cc2)cs1
high end

Which class is correct for the following molecule? Cc1cc(Nc2ccc3[nH]ncc3c2)nc(N2CCC3CNCC3CC2)n1 (stereo not drawn)
high end

Which class is correct for the following molecule? CN(C)C1CC2CCC(C1)N2c1nccc(Nc2ccc3[nH]ncc3c2)n1 (stereo not drawn)
high end

Which class is correct for the following molecule? CCN(C)c1cc(Nc2ccc3[nH]ncc3c2)nc(N2C3CCC2CNC3)n1
low end

Which class is correct for the following molecule? CNC1CC2CC1CN2c1ncc(F)c(Nc2ccc3[nH]ncc3c2)n1 (stereo not drawn)
high end

* * *

# Test system: human ACTA2 gene promoter luciferase reporter in NIH3T3 cells
# TEST NAME: NIH3T3 Acta2-promoter driven-luciferase assay
# Format: cell-based
# TEST PARAMETERS: NIH3T3, 24 h, with TGFβ1, 24 hr; read-out: NIH3T3 Acta2-luc, IC50
pIC50: −log10 of the molar value.
Given measured pIC50, output T if it is greater than or equal to 6 and F if not.

Hello, I need to know if Cc1cc(Nc2ccc3[nH]ncc3c2)nc(N2CC3CNC(C3)C2)n1 (stereo not drawn) [Example 129] has measured pIC50 not below 6. Thanks!
F

FYI, the data here is from patent US11613531B2.
